Target: human RORγt LBD (Homo sapiens (Human), UniProt P51449)
Sequence (P51449 258-518): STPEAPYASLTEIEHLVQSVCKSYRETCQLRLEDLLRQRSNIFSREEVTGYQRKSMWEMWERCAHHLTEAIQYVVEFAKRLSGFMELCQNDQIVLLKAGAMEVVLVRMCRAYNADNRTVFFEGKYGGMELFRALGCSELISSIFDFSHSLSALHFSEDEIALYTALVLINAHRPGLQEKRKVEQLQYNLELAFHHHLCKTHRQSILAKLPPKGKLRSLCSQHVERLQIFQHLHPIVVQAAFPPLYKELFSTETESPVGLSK
Assay: RORγt reporter assay (GAL4-RORγt LBD luciferase in HEK293T cells)
Assay type: cell-based
Settings: HEK293T cells, 24 hours compound treatment
REPORTED PROPERTY: IC50 (µM)

COMPOUND: COc1nc2ccc(C(O)(c3ccc(F)cc3)c3cncn3C)cc2c(Cl)c1Cc1ccc(S(C)(=O)=O)cc1 (single isomer, unassigned) [Example 54B]
TARGET OF ASSAY: human RORγt LBD (Homo sapiens (Human), UniProt P51449)
IC50, µM: 2
//
COMPOUND: CCN(C)c1nc2ccc(C(O)(c3ccc(Cl)cc3)c3cncn3C)cc2c(Cl)c1Cc1ccc(-n2cccn2)cc1 (stereo not drawn)
TARGET OF ASSAY: human RORγt LBD (Homo sapiens (Human), UniProt P51449)
IC50, µM: 0.38
//
COMPOUND: CCN(CC)c1nc2ccc(C(O)(c3ccc(Cl)cc3)c3cncn3C)cc2c(Cl)c1Cc1ccc(-n2cccn2)cc1 (single isomer, unassigned) [Example 75C]
TARGET OF ASSAY: human RORγt LBD (Homo sapiens (Human), UniProt P51449)
IC50, µM: 0.18

(P) COc1nc2ccc(C(O)(c3ccc(Cl)cc3)c3cncn3C)cc2c(Cl)c1Cc1cc2ccccc2s1 (stereo not drawn) [Example 36A]
(Q) COc1nc2c(C)cc(C(O)(c3ccc(C(F)(F)F)nc3)c3cncn3C)cc2c(Cl)c1Cc1ccc(-n2cccn2)cc1 (stereo not drawn) [Example 29A]
# query: argmin of IC50 over P and Q Answer format: the label of the selected item.
Q
(Q: 0.091 µM, P: 0.18 µM)
